experimental.target: T1, ITGA6-Fc
T1 construct: Fc fusion
T1 sequence (P23229 whole entry, species assumed, looked up): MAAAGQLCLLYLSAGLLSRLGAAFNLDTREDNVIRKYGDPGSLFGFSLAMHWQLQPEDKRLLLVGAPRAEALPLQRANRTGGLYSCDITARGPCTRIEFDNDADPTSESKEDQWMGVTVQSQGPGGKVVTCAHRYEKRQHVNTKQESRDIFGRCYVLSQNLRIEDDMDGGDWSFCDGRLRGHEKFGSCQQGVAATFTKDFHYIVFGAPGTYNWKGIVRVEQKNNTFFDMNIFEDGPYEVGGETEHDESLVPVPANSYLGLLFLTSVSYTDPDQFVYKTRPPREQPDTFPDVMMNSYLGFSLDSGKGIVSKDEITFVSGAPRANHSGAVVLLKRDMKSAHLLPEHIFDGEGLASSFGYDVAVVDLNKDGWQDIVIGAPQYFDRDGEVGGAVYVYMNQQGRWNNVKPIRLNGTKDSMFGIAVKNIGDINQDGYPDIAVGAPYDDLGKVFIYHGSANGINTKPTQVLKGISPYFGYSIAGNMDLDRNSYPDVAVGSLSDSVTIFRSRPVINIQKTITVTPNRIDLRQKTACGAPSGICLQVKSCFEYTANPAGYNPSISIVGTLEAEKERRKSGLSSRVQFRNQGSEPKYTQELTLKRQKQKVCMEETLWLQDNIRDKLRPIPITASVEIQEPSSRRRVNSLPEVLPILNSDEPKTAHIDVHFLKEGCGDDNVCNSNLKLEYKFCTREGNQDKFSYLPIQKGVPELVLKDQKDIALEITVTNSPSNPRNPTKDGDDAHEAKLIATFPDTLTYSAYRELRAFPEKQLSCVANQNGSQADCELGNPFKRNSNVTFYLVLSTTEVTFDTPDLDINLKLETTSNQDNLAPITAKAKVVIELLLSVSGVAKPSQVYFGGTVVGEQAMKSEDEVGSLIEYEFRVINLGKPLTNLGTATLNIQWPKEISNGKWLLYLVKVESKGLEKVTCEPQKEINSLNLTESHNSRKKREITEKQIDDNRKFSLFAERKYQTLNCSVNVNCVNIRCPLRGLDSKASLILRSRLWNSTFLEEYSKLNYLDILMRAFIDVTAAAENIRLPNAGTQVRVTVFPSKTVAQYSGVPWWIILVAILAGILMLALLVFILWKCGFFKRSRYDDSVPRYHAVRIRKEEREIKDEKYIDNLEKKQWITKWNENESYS
test: scFv-phage ELISA
assay.metric: OD490
Answer field: number only, no words.

// known answers, use as guide
{"binder": "PD1-45F4 (antibody, V domains shown, scFv-phage in the screening ELISA; later whole IgG) VH: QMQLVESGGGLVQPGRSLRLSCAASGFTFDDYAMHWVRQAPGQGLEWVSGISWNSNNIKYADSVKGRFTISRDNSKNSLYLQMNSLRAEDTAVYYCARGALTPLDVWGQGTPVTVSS VL: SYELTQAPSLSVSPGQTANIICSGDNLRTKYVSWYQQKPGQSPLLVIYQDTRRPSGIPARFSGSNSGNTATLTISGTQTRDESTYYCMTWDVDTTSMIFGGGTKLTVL", "OD490": 0.1}
{"binder": "PD1-32A6 (antibody, V domains shown, scFv-phage in the screening ELISA; later whole IgG) VH: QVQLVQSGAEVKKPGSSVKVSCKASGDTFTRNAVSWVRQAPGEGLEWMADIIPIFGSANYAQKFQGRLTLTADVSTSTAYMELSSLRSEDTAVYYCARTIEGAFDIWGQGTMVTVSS VL: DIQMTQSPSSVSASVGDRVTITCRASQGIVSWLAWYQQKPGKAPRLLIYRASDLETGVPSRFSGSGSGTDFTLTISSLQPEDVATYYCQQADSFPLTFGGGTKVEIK", "OD490": 0.3}

Qu. Look up OD490: PD1-42G4 (antibody, V domains shown, scFv-phage in the screening ELISA; later whole IgG) VH: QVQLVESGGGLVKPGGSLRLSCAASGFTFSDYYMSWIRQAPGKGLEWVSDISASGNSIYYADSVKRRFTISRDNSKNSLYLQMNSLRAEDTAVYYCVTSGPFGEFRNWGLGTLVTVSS VL: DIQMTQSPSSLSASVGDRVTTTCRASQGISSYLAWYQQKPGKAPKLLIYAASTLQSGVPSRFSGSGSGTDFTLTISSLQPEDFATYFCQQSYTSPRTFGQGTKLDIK
Ans. 0.4

Just for reference, patent US20190248900A1 is where these values come from.
